Reported values of log10 GI50 for individual entries
- Tested on: HCT-15
METRIC: log10 GI50 (log10 of the value in µM)

# MOLECULE, SYSTEM, log10 GI50
measured = [
    ("CCn1c2c(n(CC)c1=S)-c1c(n(CC)c(=S)n1CC)SSSS2", "HCT-15", 0.65),
    ("Cc1ccc(/N=N/C(=N/NC(=O)c2cc(Cl)ccc2O)c2ccc(N(CCC#N)CCC#N)cc2C)cc1", "HCT-15", 1.51),
    ("Cc1ccc(-c2nnc(-c3nn(-c4ccccc4)c4nc5ccccc5nc34)o2)cc1", "HCT-15", 1.33),
    ("CCOP(=O)(OCC)OC1CC(n2cnc3c(N(CC)CC)ncnc32)OC1CO[Si](C)(C)C(C)(C)C (stereo not drawn)", "HCT-15", 1.33),
    ("COC(=O)c1c(C)cccc1C1CN=NC12Cc1ccc(C)cc1C2=O (stereo not drawn)", "HCT-15", 1.70),
    ("O=C1C(C(O)(C(F)(F)F)C(F)(F)F)CCC1C(O)(C(F)(F)F)C(F)(F)F (stereo not drawn)", "HCT-15", 1.45),
    ("CC[C@@]1(O)C(=O)OCc2c1cc1n(c2=O)Cc2c-1nc1ccccc1c2/C=N\\NC(=O)C[n+]1ccccc1", "HCT-15", 0.46),
]

###

- System: CAKI-1
- TEST NAME: NCI tumour cell line growth inhibition, 48 h
Counter-ions that a name gives are not always drawn. Active and inactive are the calls of the source. Rule as the data show it: active = GI50 up to about 1.1 µM and inactive = higher.
Outcome codes: 1 for active, -1 for inactive

# COMPOUND, ASSIGNED LABEL
rows = [
    ("COC(OC)c1cccc2c1C1(O)CCC3(CC21)OCCCCO3 (stereo not drawn)", -1),
    ("COc1ccc(C2SCC(=O)N2c2ccc(-n3c(-c4ccccc4)nc4ccccc4c3=O)cc2)cc1 (stereo not drawn)", -1),
    ("CCCCC[C@H](O)[C@H](C)C=C1SCCCS1", -1),
    ("CNc1cc2oc(=O)cc(C)c2cc1C", -1),
    ("[O-][n+]1ccccc1Sc1nc(Sc2cccc[n+]2[O-])nc(Sc2cccc[n+]2[O-])n1", 1),
    ("O=C1CCCc2ccc([N+](=O)[O-])c(O)c21", -1),
    ("CCCNC(=O)CCC(C)[C@H]1CCC2C3C(C[C@H](OC(C)=O)[C@@]21C)[C@@]1(C)CCC2(C[C@H]1C[C@H]3OC(C)=O)OOC1(CCC(C)CC1)OO2 (stereo partly drawn)", -1),
    ("CN1CCN(c2ccc3nc(-c4cc(O)c5c(nc(CO)n5C)c4O)[nH]c3n2)CC1", -1),
    ("CN1/C(=C/C=C/C=C/C=C2C(=O)c3ccccc3C2=O)C(C)(C)c2ccccc21", -1),
    ("O=C(C(Cl)=C(Nc1ccccc1)Nc1ccccc1)C(Cl)Cl", -1),
    ("C/C(CC(=O)Nc1cccc(C)c1C)=N\\NC(N)=S", -1),
    ("Cc1ccc(NC(=O)C2C(=O)N(c3ccc(C)c(C)c3)C(=O)/C2=N/O)cc1C (stereo not drawn)", -1),
    ("O=C(O)c1ccccc1C(=O)c1ccco1", -1),
    ("COC(=O)C1=COC2OC3/C(=C\\c4ccc(O)c(OC)c4)C(=O)OC34C=CC1C24 (stereo not drawn)", -1),
    ("Cc1c(O)c(OC2OC(CO)C(O)C(O)C2O)cc2c1C=C[C@@H]1[C@@]2(C)C(=O)C[C@]2(C)[C@@H]([C@@](C)(O)C(O)/C=C/C(C)(C)O)[C@H](O)C[C@@]12C (stereo partly drawn)", -1),
    ("COc1cccc(/C=C2\\CCCc3ccccc3C2=O)c1", -1),
    ("CN(C)CCOC(c1ccccc1)c1ccccc1 [DIPHENHYDRAMINE HYDROCHLORIDE]", -1),
    ("CCO/C=C\\C12CCCC1NC(c1ccccc1)(c1ccccc1)O2 (stereo not drawn)", -1),
    ("COC(=O)C1CCC(=O)N1/C(C)=N/NC(=O)Nc1ccc(Cl)c(Cl)c1 (stereo not drawn)", -1),
    ("O=[N+]([O-])c1ccc(-[n+]2ccc3ccccc3c2)c([N+](=O)[O-])c1", -1),
    ("COP(=O)(OC)C(Cc1cn(C(C)=O)c2ccccc12)C(=O)O (stereo not drawn)", -1),
    ("CC(C)c1ccc(C2C3=C(N=C4SCC(=O)N42)C(=O)c2ccccc23)cc1 (stereo not drawn)", -1),
    ("COc1nc(=O)cc(N)n1C1OC(CO)C(O)C1O (stereo not drawn)", -1),
    ("CCCCCCCCCCCCCCC(O)C[N+](C)(CCO)CCO (stereo not drawn)", -1),
    ("O=C(Cc1ccccc1)NN1C(=O)C(Cl)C1c1cccc([N+](=O)[O-])c1 (stereo not drawn)", -1),
    ("CC(=O)O[C@H]1C[C@]2(O)[C@@H]3CC[C@@H]4C[C@@H](O)CC[C@]4(C)[C@H]3CC[C@]2(C)[C@H]1C1=CC(=O)OC1", 1),
    ("N#Cc1cn(-c2c3ccccc3nc3ccccc23)c(=O)[nH]c1=O", -1),
    ("CCCCCC(CO)C(O)(C(F)(F)F)C(F)(F)F (stereo not drawn)", -1),
]

###

- Tested on: SK-OV-3
- TEST NAME: NCI tumour cell line growth inhibition, 48 h
The source made the active and inactive calls. Cut-off read from the data, not from the text of the source: active = GI50 up to about 1.1 µM and inactive = higher.
Possible outcomes: T for active, F for inactive

# COMPOUND, ASSIGNED LABEL
records = [
    ("CC(CCCCNC(=O)OC(C)(C)C)NC(=O)NC(C)CCCCNC(=O)OC(C)(C)C (stereo not drawn)", "F"),
    ("CC(C)OC(=O)c1ccc(NCc2cc(O)ccc2O)cc1Cl", "F"),
    ("COC(=O)C(NC(=O)CSc1nnc(COc2ccc(Cl)cc2)n1-c1ccccc1)C(C)C (stereo not drawn)", "F"),
    ("O=C(c1ccccc1)C(c1ccccc1)C1(O)C(=O)Nc2c(Cl)ccc(Cl)c21 (stereo not drawn)", "F"),
    ("COc1ccc(C=O)c(N(C)C(=O)C(C)(C)C)c1", "F"),
    ("CC(=O)OCC(OC(C)=O)C1C[C@H]2O[C@@H]3[C@H](C[C@H]2O1)O[C@@]1(C[C@@H]3C)C[C@H](C)[C@@H]2O[C@]3(C[C@@H]2O1)C[C@H]1O[C@H]2[C@H](C)[C@H]4OC(=O)C[C@H]5CC[C@@H]6OC7[C@H]8O[C@]9(CC[C@H]%10CC(=O)[C@H](CC[C@H]%11C[C@@H](C)C(=O)C(C[C@@H]4O[C@H]2C[C@H]1O3)O%11)O%10)CC8O[C@@H]7[C@@H](O9)[C@H]6O5 (stereo partly drawn)", "T"),
    ("COc1ccc(/C=C(\\NC(=O)c2ccccc2)c2nc3ccccc3[nH]2)cc1", "F"),
    ("CC(C)(C)NCC(O)COc1cccc2[nH]c(C#N)cc12 (stereo not drawn) [CYANOPINDOLOL]", "F"),
    ("CC1(C)C(=NN=C(N)N)C(C)(C)C1=NN=C(N)N", "F"),
    ("CCCc1ccc(OCC(=O)N/N=C/c2c(-c3ccccc3)[nH]c3ccccc23)cc1", "F"),
    ("O=C(O)c1ccc(Nc2ccnc3cc(Cl)ccc23)cc1O", "F"),
    ("CCO/C=C\\C12CCCC1NC(c1ccccc1)(c1ccccc1)O2 (stereo not drawn)", "F"),
    ("Cc1nnc2sc(NN)nn12", "F"),
]

###

- Test system: 786-0
- TEST NAME: NCI tumour cell line growth inhibition, 48 h
Active and inactive are the calls of the source. No stated cut-off is given here; in the data, active = GI50 up to about 1.1 µM and inactive = higher.
Labels: active, inactive

# COMPOUND, ASSIGNED LABEL
data = [
    ("O=C(OCc1ccccc1)N1N=NC2C1C1CC(OCc3ccccc3)(OCc3ccccc3)C2O1 (stereo not given)", "inactive"),
    ("Cc1ccc(/C=N/NC2=NCCN2)s1", "inactive"),
    ("N#C/C(=C/c1ccc([N+](=O)[O-])o1)c1ccccc1", "inactive"),
    ("Cc1nc2c(cc1OCc1ccccc1)C(=O)C1=C(C2=O)C2OC(=O)CC2OC1(C)C (stereo not given)", "active"),
    ("O=C(N/N=C/C=C/c1ccc([N+](=O)[O-])o1)c1ccc(Br)s1", "inactive"),
]

###

- Test system: HOP-92
- TEST NAME: NCI tumour cell line growth inhibition, 48 h
Calls of active or inactive are those of the source. Cut-off read from the data, not from the text of the source: active = GI50 up to about 1.1 µM and inactive = higher.
METRIC: GI50

# MOLECULAR STRING, METRIC, REPORTED RESULT
records = [
    ("c1ccc2c(c1)cc1c3[nH]c4ccccc4c3ccn21", "GI50", "> 10 µM (inactive)"),
    ("Cc1ccc(/C=N/NC2=NCCN2)s1", "GI50", "> 100 µM (inactive)"),
    ("O=C(O)c1cc2ccccc2c(/N=N/c2ccc(S(=O)(=O)Nc3nccs3)cc2)c1O", "GI50", "> 100 µM (inactive)"),
    ("CC1=C(C(=O)NNC(=O)c2ccccc2)CC(C(=O)NNC(=O)c2ccccc2)=C(C)N1", "GI50", "> 100 µM (inactive)"),
    ("O=C(CSc1ncccn1)N/N=C/c1ccccc1OCc1ccccc1", "GI50", "16.9 µM (inactive)"),
]
